Source of measurements: PubChem BioAssay (NCI)

ASSAY SUMMARY: NCI Yeast Anticancer Drug Screen. Data for the rad52 strain (AID 147);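 further: 0% = growth of vehicle-treated control cultures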
CONDITIONS USED: S. cerevisiae rad52 mutant growth inhibition; at 100.0 µM
This is part of a sample that, as a whole, favours compounds with a hit. Of some 79,000 tested, about 15% had one in any assay. Active and inactive are the calls of the source. No stated cut-off is given here; in the data, active means growth inhibition above about 70%; inactive means the rest.
Please reply with one of these outcomes: 1 (yes) = active, 0 (no) = inactive

Here's what some known entries look like.
# COMPOUND, CLASS LABEL
rows = [
    ("O=Nc1c(NO)ccc2nn(-c3ccccc3)nc12", "1 (yes)"),
    ("CCCCCCCCCCC(=O)Cl", "0 (no)"),
    ("O=C(Nc1ccc(Cl)cc1)OCC#CCCl", "0 (no)"),
    ("COc1ccc(/C=C2\\SC(=S)N(/C=C/c3nc4ccccc4[nH]c3=O)C2=O)cc1OC", "1 (yes)"),
    ("CC(=O)Nc1ccc(SC(C)=O)cc1", "1 (yes)"),
    ("O=C1C(Nc2ccccc2)=C(Oc2ccccc2)C(=O)c2ccccc21", "0 (no)"),
    ("OC1CSCCCSCCSCCCSC1", "0 (no)"),
    ("Cc1ccc(CSC(N)=Nc2ccccc2)cc1C", "0 (no)"),
    ("CCN(CC)CCN1C(=O)c2cccc3cc(OC)cc(c23)C1=O", "1 (yes)"),
    ("CCC[CH2][Ge]([CH2]CCC)([CH2]CCC)[O]C(=O)C(OC)c1ccccc1 (stereo not given)", "1 (yes)"),
]

Assay result, entry O=Cc1cccc2ccc3ccccc3c12 — outcome?
1 (yes)

Similarly, COc1ccc(-c2cn(-c3ccc(I)cc3)c3ncnc(N)c23)cc1 ?
0 (no)

Same again, this time with O=[N+]([O-])c1cccc2nccc(NCCCO)c12
1 (yes)

====

ASSAY SUMMARY: NCI Yeast Anticancer Drug Screen. Data for the CLN2oe strain (AID 163);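 further: 0% = growth of vehicle-only control cultures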
CONDITIONS USED: S. cerevisiae CLN2oe strain, at 100.0 µM
The panel holds about 79,000 compounds, 15% with a hit somewhere; the sample as a whole holds those more often. The source made the active and inactive calls. Rule as the data show it: active = growth inhibition above about 70%; inactive = the rest.
Outcomes you can answer with include only these: class 1 for active, class 0 for inactive

# TEST SMILES, CLASS LABEL
data = [
    ("CC(=O)N/N=C/C(C)(C)C(C)(C)/C=N/NC(C)=O", "class 0"),
]

What outcome does the record of this test show for c1ccc2c(c1)c1ncccc1c1nccnc21 ?
class 0

Queued: CSC(=S)Nc1cc(C)ccn1
class 1

What do you get for CC(=O)[O][Bi]([c]1ccccc1)[c]1ccccc1 ?
class 1

Further, for COC(=O)c1ccc(CCC2=CC(=O)C(Br)=CC2=O)cc1 ?
class 0

Field entry: O=c1c2ccccc2ncn1COCc1ccccc1
class 0

Also c1ccc(-c2nc3cccnc3s2)cc1 , if possible.
class 0

Another molecule to look at: CN1Cc2ccccc2/C=C\c2ccccc21
class 0

Moving on to Cc1ccc(S(=O)(=O)NC(=O)NC2=NC(C)(C)N(c3ccc(Cl)c(Cl)c3)C(N)=N2)cc1
class 0

Repeat for the following molecule: CO[C@H]1C[C@](C)(O)Cc2cc3c(c(O)c21)C(=O)c1c(O)cc2c(c1C3=O)O[C@@H]1O[C@@]2(C)[C@H](O)[C@@H](N(C)C)[C@@H]1O
class 0

How about this molecule: CN(C)c1ccc(Sc2ccc3nc(N)nc(N)c3c2)cc1
class 0
